- tested-system: PARP-1 (Homo sapiens, UniProt P09874)
- Construct: purchased Trevigen
- Sequence (P09874 whole entry): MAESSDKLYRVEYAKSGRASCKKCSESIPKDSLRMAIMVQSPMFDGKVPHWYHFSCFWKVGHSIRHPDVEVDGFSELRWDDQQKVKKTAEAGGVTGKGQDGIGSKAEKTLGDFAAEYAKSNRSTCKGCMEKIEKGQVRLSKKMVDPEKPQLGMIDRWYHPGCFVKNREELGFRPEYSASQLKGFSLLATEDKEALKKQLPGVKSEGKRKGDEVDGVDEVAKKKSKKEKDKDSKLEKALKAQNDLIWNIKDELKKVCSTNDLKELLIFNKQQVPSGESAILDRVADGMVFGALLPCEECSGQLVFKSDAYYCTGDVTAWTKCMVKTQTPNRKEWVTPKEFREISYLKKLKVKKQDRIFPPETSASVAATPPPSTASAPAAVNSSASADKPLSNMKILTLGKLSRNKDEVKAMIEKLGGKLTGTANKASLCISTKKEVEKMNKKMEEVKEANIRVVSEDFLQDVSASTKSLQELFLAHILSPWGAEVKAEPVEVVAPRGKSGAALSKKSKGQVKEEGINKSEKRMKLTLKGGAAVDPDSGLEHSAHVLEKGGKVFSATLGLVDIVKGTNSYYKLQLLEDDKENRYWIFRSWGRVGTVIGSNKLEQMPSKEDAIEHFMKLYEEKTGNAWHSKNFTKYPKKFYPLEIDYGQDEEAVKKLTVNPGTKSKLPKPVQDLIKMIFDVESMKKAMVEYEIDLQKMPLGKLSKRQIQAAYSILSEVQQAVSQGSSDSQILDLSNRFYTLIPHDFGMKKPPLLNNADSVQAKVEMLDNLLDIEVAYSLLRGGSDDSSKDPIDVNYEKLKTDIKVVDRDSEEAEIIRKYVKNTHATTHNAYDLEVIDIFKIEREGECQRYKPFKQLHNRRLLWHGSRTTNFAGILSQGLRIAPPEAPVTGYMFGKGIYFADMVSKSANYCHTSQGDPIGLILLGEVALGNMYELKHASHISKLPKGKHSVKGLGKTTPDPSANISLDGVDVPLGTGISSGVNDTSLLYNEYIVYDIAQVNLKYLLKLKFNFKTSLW
- assay-text: PARP-1 inhibitory activity, HT universal colorimetric PARP assay kit (Trevigen)
- Format: biochemical
- condition-label: HT universal colorimetric PARP assay kit; read-out: PARP-1 activity in vitro IC50 nM)
observed-property: IC50 (nM)

molecule	reported-value
CC(C)(Sc1ccccc1Br)C(=O)N1CCN(C(=O)c2cc(Cc3n[nH]c(=O)c4ccccc34)ccc2F)CC1	8.6
CC(C)(Oc1ccc(Br)cc1Cl)C(=O)N1CCN(C(=O)c2cc(Cc3n[nH]c(=O)c4ccccc34)ccc2F)CC1	14.3
CC(C)(Oc1cccc(C(F)(F)F)c1)C(=O)N1CCN(C(=O)c2cc(Cc3n[nH]c(=O)c4ccccc34)ccc2F)CC1	12
CC(C)(C(=O)N1CCN(C(=O)c2cc(Cc3n[nH]c(=O)c4ccccc34)ccc2F)CC1)[S+]([O-])c1ccc(F)cc1 (stereo not shown)	5.94

###

Below, each entry is listed alongside its reported IC50.
- tested-system: PARP-1 (Homo sapiens, UniProt P09874)
- Construct: purchased Trevigen
- assay-text: PARP-1 inhibitory activity, HT universal colorimetric PARP assay kit (Trevigen)
- Format: biochemical
- condition-label: HT universal colorimetric PARP assay kit; read-out: PARP-1 activity in vitro IC50 nM)

compound	IC50 (nM)
CC(C)(Oc1ccccn1)C(=O)N1CCN(C(=O)c2cc(Cc3n[nH]c(=O)c4ccccc34)ccc2F)CC1	13.9
CC(C)(Sc1cccc(F)c1)C(=O)N1CCN(C(=O)c2cc(Cc3n[nH]c(=O)c4ccccc34)ccc2F)CC1	5.7
CC(C)(Sc1ccc(Cl)cc1Cl)C(=O)N1CCN(C(=O)c2cc(Cc3n[nH]c(=O)c4ccccc34)ccc2F)CC1	3.05
CC(C)(C(=O)N1CCN(C(=O)c2cc(Cc3n[nH]c(=O)c4ccccc34)ccc2F)CC1)[S+]([O-])c1ccc(Cl)cc1Cl (stereo not shown)	9.47
COc1cccc(SC(C)(C)C(=O)N2CCN(C(=O)c3cc(Cc4n[nH]c(=O)c5ccccc45)ccc3F)CC2)c1	7.08
CC(C)(Sc1ccccn1)C(=O)N1CCN(C(=O)c2cc(Cc3n[nH]c(=O)c4ccccc34)ccc2F)CC1	5
CC(C)(Nc1ccc(F)cc1)C(=O)N1CCN(C(=O)c2cc(Cc3n[nH]c(=O)c4ccccc34)ccc2F)CC1	6.68
COc1ccc(OC(C)(C)C(=O)N2CCN(C(=O)c3cc(Cc4n[nH]c(=O)c5ccccc45)ccc3F)CC2)cc1	11
CC(C)(Sc1ccc(Cl)c(Cl)c1)C(=O)N1CCN(C(=O)c2cc(Cc3n[nH]c(=O)c4ccccc34)ccc2F)CC1	9.38
CC(C)(Sc1ccc(Br)cc1)C(=O)N1CCN(C(=O)c2cc(Cc3n[nH]c(=O)c4ccccc34)ccc2F)CC1	9.16

###

- tested-system: PARP-1 (Homo sapiens)
- Construct: purchased Trevigen
- assay-text: PARP-1 inhibitory activity, HT universal colorimetric PARP assay kit (Trevigen)
- Type: biochemical
- condition-label: HT universal colorimetric PARP assay kit; read-out: PARP-1 activity in vitro IC50 nM)

cpd-smiles	IC50
CC(C)(Oc1ccccc1[N+](=O)[O-])C(=O)N1CCN(C(=O)c2cc(Cc3n[nH]c(=O)c4ccccc34)ccc2F)CC1	12.4 nM
CC(C)(Sc1cc(Cl)ccc1Cl)C(=O)N1CCN(C(=O)c2cc(Cc3n[nH]c(=O)c4ccccc34)ccc2F)CC1	7.9 nM
CC(C)(Sc1ccc(F)cc1F)C(=O)N1CCN(C(=O)c2cc(Cc3n[nH]c(=O)c4ccccc34)ccc2F)CC1	5.17 nM
CC(C)(C(=O)N1CCN(C(=O)c2cc(Cc3n[nH]c(=O)c4ccccc34)ccc2F)CC1)S(=O)(=O)c1ccc(F)cc1	4.66 nM
CC(C)(C(=O)N1CCN(C(=O)c2cc(Cc3n[nH]c(=O)c4ccccc34)ccc2F)CC1)S(=O)(=O)c1ccccc1	4.23 nM
CC(C)(SC1CCCC1)C(=O)N1CCN(C(=O)c2cc(Cc3n[nH]c(=O)c4ccccc34)ccc2F)CC1	5.17 nM
Cc1cc(OC(C)(C)C(=O)N2CCN(C(=O)c3cc(Cc4n[nH]c(=O)c5ccccc45)ccc3F)CC2)cc(C)c1Br	16.5 nM

Values from patent US8871765B2
